All values here come from patent US20230120736A1.

# TEST: Conjugation of anti-CD98 mAbs with Bcl-xL inhibitor synthons (precipitation, DAR, recovery, aggregation)
# CONDITION SET: conjugation with synthon TX, Method E
QUANTITY KIND: DAR by MS
Give bare numbers.

These recorded examples may help you get a feel for the data.
huAb105: "heavy chain variable sequence of huAb105 is provided in SEQ ID NO: 111"; "light chain variable sequence ... in SEQ ID NO: 112" (antibody, V domains shown) VH: EVQLVESGGGLVQPGGSLRLSCAASGFTFSDYTMAWVRQAPGKGLEWVATIIYSGRGTYYRDAVKGRFTISRDNAKNTLYLQMNSLRAEDTAVYYCARQSDHTYYYWGYFDYWGQGTMVTVSS VL: DIVMTQTPLSLPVTPGEPASINCKSSQSLLFSGNQKNYLAWYLQKPGQSPQLLIYWASTRQSGVPDRFSGSGSGTDFTLKISRVEAEDVGIYYCQQYYDVPYTFGQGTKLEIK	1.7
huAb103: "heavy chain variable sequence of huAb103 is provided in SEQ ID NO: 109"; "light chain variable sequence ... in SEQ ID NO: 107" (antibody, V domains shown) VH: EVQLVESGGGLVKPGGSLRLSCATSGFTFIDYYMSWVRQAPGKGLEWLGFIRNKAYGYTTEYSASVKGRFTISRDNSKSILYLQMNSLKTEDTAVYYCTRDRPAWFVYWGQGTLVTVSS VL: DIVMTQTPLSLPVTPGEPASISCKSSQSLLYSSNQKNYLAWYLQKPGQSPQLLIYWASTRESGVPDRFSGSGSGTDFTLKISRVEAEDVGVYYCQQYYSYPYTFGGGTKVEIK	3.8
huAb109: "heavy chain variable sequence of huAb109 is provided in SEQ ID NO: 116"; "light chain variable sequence ... in SEQ ID NO: 117" (antibody, V domains shown) VH: EVQLVESGGGLVQPGGSLRLSCAASGFTFSDYTMAWVRQAPGKGLEWVATIIYDARGTYYRDAVKGRFTISRDNAKNTLYLQMNSLRAEDTAVYYCARQSDDTYYYWGYFDYWGQGTMVTVSS VL: DIVMTQTPLSLPVTPGEPASINCKSSQSLLFSGNQKNYLAWYLQKPGQSPQLLIYWASTRQSGVPDRFSGSGSGTDFTLKISRVEAEDVGIYYCQQYYSSPYTFGQGTKLEIK	2.9

Your task in this section: give DAR by MS for each listed record.
1. huAb101: "heavy chain variable sequence of huAb101 is provided in SEQ ID NO: 106"; "light chain variable sequence ... in SEQ ID NO: 107" (antibody, V domains shown) VH: EVQLVESGGGLVKPGGSLRLSCATSGFTFIDYYMSWVRQAPGKGLEWLGFIRNKANRYTTEYSASVKGRFTISRDNSKSILYLQMNSLKTEDTAVYYCTRDRPAWFVYWGQGTLVTVSS VL: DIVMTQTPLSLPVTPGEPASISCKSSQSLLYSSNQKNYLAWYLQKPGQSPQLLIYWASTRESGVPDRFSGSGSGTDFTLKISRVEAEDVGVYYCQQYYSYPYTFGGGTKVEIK
2. huAb107: "heavy chain variable sequence of huAb107 is provided in SEQ ID NO: 114"; "light chain variable sequence ... in SEQ ID NO: 112" (antibody, V domains shown) VH: EVQLVESGGGLVQPGGSLRLSCAASGFTFSDYTMAWVRQAPGKGLEWVATIIYSGRGTYYRDAVKGRFTISRDNAKNTLYLQMNSLRAEDTAVYYCARQSDDTYYYWGYFDYWGQGTMVTVSS VL: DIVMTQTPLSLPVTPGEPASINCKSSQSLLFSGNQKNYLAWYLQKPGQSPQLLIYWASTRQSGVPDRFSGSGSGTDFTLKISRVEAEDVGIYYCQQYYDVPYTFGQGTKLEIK

1: 3.5; 2: 3.1
